Target: HLA-A*31:01
Test: IEDB peptide-MHC binding, purified MHC/direct/fluorescence; filed as Kd, often an IC50 or EC50 that approximates it; bounds were set here for any values at or beyond the usual limits of such assays
Conditions: source organism: Salmonella enterica subsp. enterica serovar Typhi
pKd: −log10 of the molar value.
measured.attribute: pKd

Which pKd value is on record for `REILFHNTM` ?
≤ 4.70

* * *

Molecular target: HLA-A*02:02
Experiment: IEDB peptide-MHC binding, purified MHC/competitive/radioactivity; filed as Kd, often an IC50 or EC50 that approximates it; bounds were set here for any values at or beyond the usual limits of such assays
Conditions: source organism: Vaccinia virus WR
measured.attribute: Kd (µM)
Express your answer in µM, writing the number without its unit.

Here's what some known entries look like.
seq_string=AVSVYGAIT measured_attribute=Kd unit_string=µM value_measured=11.4
seq_string=RVLYDEFVT measured_attribute=Kd unit_string=µM value_measured=2.17
seq_string=EIRGVLPEET measured_attribute=Kd unit_string=µM value_measured=9.6
seq_string=RTWKVLSIM measured_attribute=Kd unit_string=µM value_measured=19.1

Turning now to a further record.
Could you tell me which Kd is on file for `STKADAVVA` ?
8.19

* * *

Molecular target: HLA-B*44:03
Experiment: IEDB peptide-MHC binding, purified MHC/competitive/radioactivity; filed as Kd, often an IC50 or EC50 that approximates it; bounds were set here for any values at or beyond the usual limits of such assays
Conditions: source organism: Hepatitis C virus (isolate H)
pKd: −log10 of the molar value.
measured.attribute: pKd

Query (sequence): `HPALVFDITK` ; field requested: pKd
≤ 4.20

* * *

Target: HLA-B*44:02
Experiment: IEDB peptide-MHC binding, purified MHC/competitive/radioactivity; filed as Kd, often an IC50 or EC50 that approximates it; bounds were set here for any values at or beyond the usual limits of such assays
Details: source organism: Mammarenavirus choriomeningitidis
measured.attribute: pKd
Hey, just a heads up that pKd is the negative log base 10 of the concentration in molar.

Requested read-out: pKd. Entry: `FEDQFLPFMS`
4.84

* * *

Target: HLA-B*45:06
Experiment: IEDB peptide-MHC binding, purified MHC/competitive/fluorescence; filed as Kd, often an IC50 or EC50 that approximates it; bounds were set here for any values at or beyond the usual limits of such assays
Details: source organism: Yellow fever virus
The following sequences are listed with their measured Kd values.

seq_string=MWHVTRGAF measured_attribute=Kd value_measured="≥ 5 µM"

Let us examine a further case.
Report Kd for `RRRLRTLVL` please.
≥ 5 µM

* * *

Molecular target: HLA-A*26:01
Assay: IEDB peptide-MHC binding, purified MHC/direct/fluorescence; filed as Kd, often an IC50 or EC50 that approximates it; bounds were set here for any values at or beyond the usual limits of such assays
Conditions: source organism: Bacillus anthracis str. 'Ames Ancestor'
pKd: −log10 of the molar value.
measured.attribute: pKd

What does the record list as pKd for `TKAGMAQYL` ?
≤ 4.70

* * *

Target: HLA-B*40:01
Experiment: IEDB peptide-MHC binding, purified MHC/competitive/radioactivity; filed as Kd, often an IC50 or EC50 that approximates it; bounds were set here for any values at or beyond the usual limits of such assays
Settings: source organism: Mammarenavirus choriomeningitidis
measured.attribute: pKd
Keep in mind that pKd stands for -log10 of concentration in molar terms.

For `FEDQFLPFMS` , what is its reported pKd?
5.41

Recorded values, source the Immune Epitope Database (IEDB).
